assay-system: C-X-C chemokine receptor type 4 (Homo sapiens, UniProt P61073)
Sequence (P61073 whole entry): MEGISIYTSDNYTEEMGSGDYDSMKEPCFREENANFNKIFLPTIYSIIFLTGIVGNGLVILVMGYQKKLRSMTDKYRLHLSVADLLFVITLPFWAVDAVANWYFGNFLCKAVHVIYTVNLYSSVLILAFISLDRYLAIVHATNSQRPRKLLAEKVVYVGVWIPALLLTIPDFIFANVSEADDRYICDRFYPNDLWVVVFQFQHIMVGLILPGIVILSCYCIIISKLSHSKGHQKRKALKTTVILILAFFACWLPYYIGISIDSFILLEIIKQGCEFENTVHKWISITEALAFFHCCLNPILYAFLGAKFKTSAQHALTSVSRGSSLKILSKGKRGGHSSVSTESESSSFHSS
assay-procedure: Binding affinity to CXCR4 (unknown origin) overexpressed in human CCRF-CEM cells assessed as inhibition of ant-CXCR4 PE-antibody binding to receptor preincubated with compound for 45 mins followed by anti-CXCR4 PE-antibody addition and measured after 30 mins by flow cytometry based competitive binding assay
Assay type: cell-based
For each entry below, report its IC50 value.
Answers are plain numbers, in nM.

Query `CC(=O)N[C@@H](CCCNC(=N)N)C(=O)N[C@@H](C)C(=O)N[C@@H]1CCC(=O)NCC[C@@H](C(=O)O)NC(=O)[C@H](Cc2c[nH]cn2)NC(=O)[C@H](Cc2ccc3ccccc3c2)NC(=O)[C@H](CCCNC(=N)N)NC1=O` yields IC50 of 238

Each compound below has a reported value. Please supply its IC50.
1. CC(=O)N[C@@H](CCCNC(=N)N)C(=O)N[C@@H](C)C(=O)N[C@@H]1CC(=O)NCCC[C@@H](C(=O)O)NC(=O)[C@H](Cc2c[nH]cn2)NC(=O)[C@H](Cc2ccc3ccccc3c2)NC(=O)[C@H](CCCNC(=N)N)NC1=O
2. CC(=O)N[C@@H](CCCNC(=N)N)C(=O)N[C@@H](C)C(=O)N[C@@H]1CC(=O)NCCCC[C@@H](C(=O)O)NC(=O)[C@H](Cc2c[nH]cn2)NC(=O)[C@H](Cc2ccc3ccccc3c2)NC(=O)[C@H](CCCNC(=N)N)NC1=O

output:
2020
2570

====

assay-procedure: Stability of compound in PBS at pH 7.4 assessed as parent compound remaining at 10 uM measured after 4 hrs in presence of GSH by RP-HPLC analysis
Type: physicochemical
settings: PBS with GSH, read-out: Stability
measurement-label: remaining at 4 h, 10 µM

State the recorded remaining at 4 h, 10 µM for every item in the following list.
1. CC(=O)N[C@@H](CCCNC(=N)N)C(=O)N[C@@H](C)C(=O)N[C@H]1CNC(=O)CC[C@@H](C(=O)O)NC(=O)[C@H](Cc2c[nH]cn2)NC(=O)[C@H](Cc2ccc3ccccc3c2)NC(=O)[C@H](CCCNC(=N)N)NC1=O
2. CC(=O)N[C@@H](CCCNC(=N)N)C(=O)N[C@@H](C)C(=O)N[C@@H]1CSSC(C)(C)[C@@H](C(=O)O)NC(=O)[C@H](Cc2cnc[nH]2)NC(=O)[C@H](Cc2ccc3ccccc3c2)NC(=O)[C@H](CCCNC(=N)N)NC1=O

output:
1. 100%
2. 65%

====

assay-system: C-X-C chemokine receptor type 4 (Homo sapiens, UniProt P61073)
assay-procedure: Binding affinity to CXCR4 (unknown origin) overexpressed in human CCRF-CEM cells assessed as inhibition of ant-CXCR4 PE-antibody binding to receptor preincubated with compound for 45 mins followed by anti-CXCR4 PE-antibody addition and measured after 30 mins by flow cytometry based competitive binding assay
Assay type: cell-based
For each entry below, report its pIC50 value.
Answers are plain numbers, as −log10 of the molar value.

The recorded pIC50 for `CC(=O)N[C@@H](CCCNC(=N)N)C(=O)N[C@@H](C)C(=O)N[C@@H]1CC(=O)NCC[C@@H](C(=O)O)NC(=O)[C@H](Cc2c[nH]cn2)NC(=O)[C@H](Cc2ccc3ccccc3c2)NC(=O)[C@H](CCCNC(=N)N)NC1=O` is 6.15

# pIC50 (compound: `CC(=O)N[C@@H](CCCNC(=N)N)C(=O)N[C@@H](C)C(=O)N[C@@H]1CNC(=O)CC[C@@H](C(=O)O)NC(=O)[C@H](Cc2c[nH]cn2)NC(=O)[C@H](Cc2ccc3ccccc3c2)NC(=O)[C@H](CCCNC(=N)N)NC1=O` ) is 6.09

Measured pIC50 of `CC(=O)N[C@@H](CCCNC(=N)N)C(=O)N[C@@H](C)C(=O)N[C@H]1CC(=O)NCC[C@@H](C(=O)O)NC(=O)[C@H](Cc2c[nH]cn2)NC(=O)[C@H](Cc2ccc3ccccc3c2)NC(=O)[C@H](CCCNC(=N)N)NC1=O` : 6.12

Reported pIC50 of `CC(=O)N[C@@H](CCCNC(=N)N)C(=O)N[C@@H](C)C(=O)N[C@@H]1CSSC(C)(C)[C@@H](C(=O)O)NC(=O)[C@H](Cc2cnc[nH]2)NC(=O)[C@H](Cc2ccc3ccccc3c2)NC(=O)[C@H](CCCNC(=N)N)NC1=O` : 8.82

The value of pIC50 measured for the compound `CC(=O)N[C@@H](CCCNC(=N)N)C(=O)N[C@@H](C)C(=O)N[C@@H]1CNC(=O)C[C@@H](C(=O)O)NC(=O)[C@H](Cc2c[nH]cn2)NC(=O)[C@H](Cc2ccc3ccccc3c2)NC(=O)[C@H](CCCNC(=N)N)NC1=O` turned out to be 5.44

Okay, now this compound:
# pIC50 of `CC(=O)N[C@@H](CCCNC(=N)N)C(=O)N[C@@H](C)C(=O)N[C@@H]1CCC(=O)NC[C@@H](C(=O)O)NC(=O)[C@H](Cc2c[nH]cn2)NC(=O)[C@H](Cc2ccc3ccccc3c2)NC(=O)[C@H](CCCNC(=N)N)NC1=O` = 7.05

====

assay-system: C-X-C chemokine receptor type 4 (Homo sapiens)
assay-procedure: Binding affinity to CXCR4 (unknown origin) overexpressed in human CCRF-CEM cells assessed as inhibition of ant-CXCR4 PE-antibody binding to receptor preincubated with compound for 45 mins followed by anti-CXCR4 PE-antibody addition and measured after 30 mins by flow cytometry based competitive binding assay
Assay type: cell-based
measurement-label: pIC50
Answers are plain numbers, as −log10 of the molar value.

Quick note, pIC50 for `CC(=O)N[C@@H](CCCNC(=N)N)C(=O)N[C@@H](C)C(=O)N[C@H]1CCC(=O)NC[C@@H](C(=O)O)NC(=O)[C@H](Cc2c[nH]cn2)NC(=O)[C@H](Cc2ccc3ccccc3c2)NC(=O)[C@H](CCCNC(=N)N)NC1=O` landed at 6.29

For each entry beneath this line, provide reported pIC50.
1. CC(=O)N[C@@H](CCCNC(=N)N)C(=O)N[C@@H](C)C(=O)N[C@H]1CNC(=O)C[C@@H](C(=O)O)NC(=O)[C@H](Cc2c[nH]cn2)NC(=O)[C@H](Cc2ccc3ccccc3c2)NC(=O)[C@H](CCCNC(=N)N)NC1=O
2. CC(=O)N[C@@H](CCCNC(=N)N)C(=O)N[C@@H](C)C(=O)N[C@H]1CNC(=O)CC[C@@H](C(=O)O)NC(=O)[C@H](Cc2c[nH]cn2)NC(=O)[C@H](Cc2ccc3ccccc3c2)NC(=O)[C@H](CCCNC(=N)N)NC1=O
3. CC(=O)N[C@@H](CCCNC(=N)N)C(=O)N[C@@H](C)C(=O)N[C@@H]1CC(=O)NC[C@@H](C(=O)O)NC(=O)[C@H](Cc2c[nH]cn2)NC(=O)[C@H](Cc2ccc3ccccc3c2)NC(=O)[C@H](CCCNC(=N)N)NC1=O

output:
6.84
8.11
5.50
